Biological target: CYP3A4 (Homo sapiens)
Construct: pre-incubated with human liver microsomes and NADPH; from tissue; host or cells: human liver microsomes
Sequence (P08684 whole entry): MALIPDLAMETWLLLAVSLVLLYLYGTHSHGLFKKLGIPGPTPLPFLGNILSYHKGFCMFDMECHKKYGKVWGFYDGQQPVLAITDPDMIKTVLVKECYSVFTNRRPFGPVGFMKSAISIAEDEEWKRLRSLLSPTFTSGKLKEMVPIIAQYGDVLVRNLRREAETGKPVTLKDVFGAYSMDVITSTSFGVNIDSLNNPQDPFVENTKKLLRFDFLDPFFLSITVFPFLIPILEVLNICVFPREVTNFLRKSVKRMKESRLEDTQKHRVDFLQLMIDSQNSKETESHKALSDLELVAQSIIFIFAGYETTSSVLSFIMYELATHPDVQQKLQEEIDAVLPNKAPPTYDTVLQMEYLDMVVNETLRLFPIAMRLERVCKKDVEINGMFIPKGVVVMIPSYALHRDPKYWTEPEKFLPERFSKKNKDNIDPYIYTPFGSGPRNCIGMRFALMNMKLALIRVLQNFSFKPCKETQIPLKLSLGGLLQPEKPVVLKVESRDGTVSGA
Experiment: Cytochrome P450 inhibition assay (midazolam hydroxylation)
Format: in vitro ADME
Conditions: human, human liver microsomes, probe midazolam (hydroxylation to 1′-hydroxymidazolam), 10 μM test compound, midazolam at approximately its Km
The reader will find reported inhibition at 10 µM values listed item by item below.

molecule	units.text	inhibition at 10 µM
Cc1ccc(-n2nccn2)c(C(=O)N2CCC[C@@H](C)[C@H]2CNc2ncc3ccccc3n2)c1 [Example A216]	%	67
Cc1ccc(-n2ncc(C)n2)c(C(=O)N2CCC[C@@H](C)[C@H]2CNc2ccc(Cl)cn2)c1 [Example A121]	%	84
Cc1ccc(F)c(C(=O)N2CCC[C@@H](C)[C@H]2CNc2ccc(C(F)(F)F)cn2)c1-c1ncccn1 [Example A354]	%	49
Cc1ccc(-c2ncccn2)c(C(=O)N2CCC[C@@H](C)[C@H]2CNc2nc3cc(Cl)ccc3o2)c1 [Example A205]	%	72
COc1cccnc1NC[C@@H]1[C@H](C)CCCN1C(=O)c1cc(C)ccc1-c1cnn(C)c1 [Example A101]	%	83
Cc1ccc(-c2cnn(C)c2)c(C(=O)N2CCC[C@@H](C)[C@H]2CNc2ncccc2C(F)(F)F)c1 [Example A93]	%	96
Cc1ccc(NC[C@@H]2[C@H](C)CCCN2C(=O)c2cc(C)ccc2-n2nccn2)nc1 [Example A48]	%	74
Cc1ccc(-c2ccccn2)c(C(=O)N2CCC[C@@H](C)[C@H]2CNc2ccc(C(F)(F)F)nn2)c1 [Example A150]	%	74
Cc1ccc(-n2ncnc2C)c(C(=O)N2CCC[C@@H](C)[C@H]2CNc2ccc(C(F)(F)F)cn2)c1 [Example A16]	%	96
Cc1ccc(-n2ccc(C)n2)c(C(=O)N2CCC[C@@H](C)[C@H]2CNc2ncc(C#N)cn2)c1 [Example A131]	%	84
